# test protocol: in vitro
# Set-up: Viability of infected HeLa host cells, resazurin conversion, bulk resorufin fluorescence relative to DMSO
# conditions: human, hela cells; bulk resorufin, mean of 2
measured property: viability at 28.5 h, 5 µM

In [3]: df
Out[3]:
                                   molecule  recorded_measurement
0  CC(C)NCC(O)Cn1c2c(c3ccccc31)CCc1c-2cnn1-c1ccccc1 (stereo not shown)                 89.4%
1  O=C(Nc1cccc(OC(=O)c2cc(S(=O)(=O)N3CCCCC3)ccc2Cl)c1)c1ccco1                 96.6%
2  CCCCCC(=O)Nc1ccc(S(=O)(=O)Nc2nnc(CC)s2)cc1                 93.6%
3  O=C(O)c1[nH]c2ccccc2c1C(c1ccsc1)c1c(C(=O)O)[nH]c2ccccc12                  106%

---

viability at 28.5 h, 10 µM values by entry
# test protocol: in vitro
# conditions: human, hela cells, % viability
measured property: viability at 28.5 h, 10 µM (%)

                                   molecule           measured_property  unit_annotation  recorded_measurement
0  Cc1c(-c2cc(C(=O)NC(C)C3CC4CCC3C4)no2)cnn1C (stereo not drawn) [CBK281653]  viability at 28.5 h, 10 µM                %                  91.3
1  Cc1ccc(C)c(C2CCCN2C(=O)c2ccc(=O)n(CC(=O)Nc3ccc(F)cc3)c2)c1 (stereo not drawn) [CBK286495]  viability at 28.5 h, 10 µM                %                  93.4
2  Cc1ccc(-c2oncc2C(=O)NCc2ccc(S(N)(=O)=O)cc2)cc1 [CBK154912]  viability at 28.5 h, 10 µM                %                   102
3  CC(=O)c1ccc(NC(=O)CSc2nnc(-c3ccncc3)s2)cc1 [CBK269183]  viability at 28.5 h, 10 µM                %                  85.1
4  Cc1nn2c(N)ncnc2c1-c1ccc(Cl)cc1 [CBK287880]  viability at 28.5 h, 10 µM                %                  68.8
5  CC(=O)Nc1cccc(NC(=O)CSc2ncnc3c2nnn3C)c1 [CBK287829]  viability at 28.5 h, 10 µM                %                  91.9
6  CC(C)c1ccc(N2C(=O)SC(c3ccccc3)C2=O)cc1 (stereo not drawn) [CBK113687]  viability at 28.5 h, 10 µM                %                  91.1
7  O=C(Nc1cccc(Cl)c1)c1cccc(NC(=O)c2ccccc2C(=O)O)c1 [CBK287122]  viability at 28.5 h, 10 µM                %                  81.8
8  CCOC(=O)c1cnn(C2CCCN(Cc3cncs3)C2)c1 (stereo not drawn) [CBK304039]  viability at 28.5 h, 10 µM                %                  94.7
